Assay: pharmacokinetic study in mice (serum and brain, non-compartmental analysis)
Assay type: in vivo, mouse
Conditions: male, CD-1, mouse, ip, serum, 50 mg/kg i.p.
readout: CL/F (mL/min/kg)
Use mL/min/kg as the unit, but write only the number.

Req: Can you share its CL/F? I mean this compound: CC(=O)N[C@@H](C(=O)N1CCN(c2cccc(OC(F)(F)F)c2)CC1)c1ccccc1 [(R)-32]
Resp: 108

----------
Test: pharmacokinetic study in mice (serum and brain, non-compartmental analysis)
Format: in vivo, mouse
Conditions: male, CD-1, mouse, brain and serum, intraperitoneal, 50 mg/kg, read-out: Brain-to-serum AUC ratio
readout: Kp
Form rule: numeric answer, no unit written next to it.

Req: Can you share its Kp? I mean this molecule: CC(=O)N[C@@H](C(=O)N1CCN(c2cccc(OC(F)(F)F)c2)CC1)c1ccccc1 [(R)-32]
Resp: 1.5
